TEST_NAME: S. cerevisiae growth inhibition in restrictive medium, OD615, pilot screen, restrictive growth control, yeast lifespan reduction project (AID 706);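 also: modified DeaD lifespan yeast strain shifted to restrictive glucose medium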
SETTINGS: OD615, 48 h, at 10 µM, hits give high values
Active and inactive are the calls of the source.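 The calls were made as follows: active = growth inhibition above a set limit, 3 SD over mean compound inhibition, in both replicates (cut at about 43% in these data); inconclusive = above the limit in only one replicate; inactive = at or below the limit in both replicates.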
READOUT_KIND: growth inhibition

What measured growth inhibition goes with "CCN(CC)S(=O)(=O)c1cc(C(=O)Oc2ccccc2OC)ccc1OC" ?
2.38% (inactive)

GET /values?readout=growth inhibition&item= "Cc1cccc(-n2ncc3c(NCCc4ccc(S(N)(=O)=O)cc4)ncnc32)c1"
1.53% (inactive)

Consider the compound "COCCNC(=O)CN(C)S(=O)(=O)c1ccc(Br)cc1" and give its measured growth inhibition.
-5.76% (inactive)

Name the recorded growth inhibition for CC1CCCN(C(=O)C(Cc2ccccc2)n2cccc2)C1 (centres undefined) .
-13% (inactive)

* * *

TEST_NAME: RAM signaling pathway blockade in yeast – S. cerevisiae, Pdr1DBD-CYC8 efflux-inhibited sensitized strain, primary screen (AID 1298);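 also: 0% = DMSO untreated cells without growth and 100% = 10 µM 1-NA-PP1 full growth; higher means more yeast growth rescued from 5-FOA killing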
SETTINGS: S. cerevisiae cbk1-as DSE1-URA3 strain, 5-FOA growth OD615, 2 d; at 50 µM; hits give high values
READOUT_KIND: RAM network inhibition (%)
Use % as the unit, but write only the number.

Would you kindly share the measured RAM network inhibition for "CN(C)CCNc1ncnc2c1cnn2-c1ccc(Cl)cc1" ?
3.07

What does the data say about its RAM network inhibition? Entry: "CCCCN(CC)CCNC(=O)c1cc2c(C)nc3ccccc3c2o1"
2.07

What does the record list as RAM network inhibition for "CCOC(=O)Cn1c(=O)c(-c2ccccc2N)nc2ccccc21" ?
3.47

Returns the measured RAM network inhibition for the input compound. Input: "CC(=O)C1=C(N2CCCCC2)CCC1=O"
0.55

* * *

SYSTEM_UNDER_TEST: Receptor tyrosine-protein kinase erbB-2 (Homo sapiens) (UniProt P04626)
Sequence (P04626 whole entry, looked up): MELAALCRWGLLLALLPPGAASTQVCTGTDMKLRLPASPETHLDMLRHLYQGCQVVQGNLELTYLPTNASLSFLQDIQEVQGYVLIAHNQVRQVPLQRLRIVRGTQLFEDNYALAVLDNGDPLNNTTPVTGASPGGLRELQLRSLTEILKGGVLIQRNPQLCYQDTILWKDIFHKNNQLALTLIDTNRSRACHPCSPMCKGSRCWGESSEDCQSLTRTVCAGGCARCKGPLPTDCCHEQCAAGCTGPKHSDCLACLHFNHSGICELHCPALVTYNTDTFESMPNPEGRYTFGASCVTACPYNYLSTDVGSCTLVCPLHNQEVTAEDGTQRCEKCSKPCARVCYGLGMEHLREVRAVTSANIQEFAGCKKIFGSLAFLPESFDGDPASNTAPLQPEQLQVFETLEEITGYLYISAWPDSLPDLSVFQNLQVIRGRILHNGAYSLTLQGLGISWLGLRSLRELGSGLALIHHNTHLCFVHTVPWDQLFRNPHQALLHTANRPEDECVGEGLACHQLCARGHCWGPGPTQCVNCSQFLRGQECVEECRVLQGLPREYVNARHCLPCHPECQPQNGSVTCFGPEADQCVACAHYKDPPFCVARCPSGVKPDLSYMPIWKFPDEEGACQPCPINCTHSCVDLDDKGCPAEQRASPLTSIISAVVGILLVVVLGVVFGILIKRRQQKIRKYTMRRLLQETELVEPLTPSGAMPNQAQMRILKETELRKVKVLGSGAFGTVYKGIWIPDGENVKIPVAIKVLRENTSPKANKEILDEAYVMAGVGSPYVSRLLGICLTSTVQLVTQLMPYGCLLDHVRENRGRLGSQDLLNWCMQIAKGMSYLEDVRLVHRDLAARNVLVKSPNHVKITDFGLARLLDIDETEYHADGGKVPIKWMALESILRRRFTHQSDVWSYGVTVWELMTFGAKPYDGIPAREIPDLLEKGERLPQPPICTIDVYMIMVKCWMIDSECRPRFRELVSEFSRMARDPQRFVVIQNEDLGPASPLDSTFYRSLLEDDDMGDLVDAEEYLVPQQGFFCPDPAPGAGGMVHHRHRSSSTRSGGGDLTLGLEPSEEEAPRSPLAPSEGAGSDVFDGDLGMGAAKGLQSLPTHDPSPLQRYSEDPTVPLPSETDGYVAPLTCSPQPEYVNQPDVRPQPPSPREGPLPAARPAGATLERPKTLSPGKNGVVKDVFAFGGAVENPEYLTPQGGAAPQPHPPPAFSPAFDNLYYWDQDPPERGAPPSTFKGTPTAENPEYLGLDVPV
TEST_NAME: Her2 expression decrease, cell viability multiplex – SKBR3 breast tumor cells, AlphaScreen, ATP viability, primary screen (AID 461);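 also: lower value means less Her2 protein in the cells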
SETTINGS: 18-24 h, at 10 µM, hits give low values
The source made the active and inactive calls.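 How the source made its calls: active means Her2 level under about 52% in both replicate screens, with viability over 70% of control (limit read from the data); inconclusive means Her2 under the limit in one screen only, or viability under 70%; inactive means Her2 level above the set limit.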
READOUT_KIND: Her2 level

Form field: reported Her2 level of CCC1CCCCN1CCCNC(=O)CC1Oc2ccc(C)cc2NC1=O (stereo unspecified)
97.5% (inactive)

// Her2 level lookup, key: "COc1ccc(NC(=O)CSc2nnc(Cc3cccn3C)n2-c2ccc(F)cc2)cc1"
112% (inactive)

For the compound shown here, Cc1ccccc1NC(=O)C1CCCN(S(=O)(=O)c2cnc[nH]2)C1 (stereo unspecified) , give the reported Her2 level.
108% (inactive)

# input compound: COc1ccc(C2CC(c3ccc(Cl)cc3Cl)n3nc(N)nc3N2)cc1 (stereo unspecified) ; wanted: its Her2 level
93.5% (inactive)

Record request: Her2 level value, item "Cc1c(C#N)c2ncnc(-c3ccccc3)c2n1-c1ccccc1"
101% (inactive)

Fill blank: measured Her2 level of the compound "CCC(=O)c1cc(F)c(N2CCN(C(=O)c3ccco3)CC2)cc1C" is ____.
90.5% (inactive)

What value of Her2 level has been recorded for this entry: "O=C(CCCn1c(=O)c2sccc2n(Cc2cc(=O)n3ccccc3n2)c1=O)NCc1ccco1"
126% (inactive)

Entry "CCOC(=O)N1CCN(c2cc(=O)n(-c3cccc(Br)c3)c(=O)[nH]2)CC1" : reported Her2 level = ?
108% (inactive)

Any idea what its Her2 level is? The compound is "CCOC(=O)c1c(C)n(C)c2c(C)cc(O)c(OC(C)=O)c12"
83.5% (inactive)

Please give the measured Her2 level for this compound: "CCOc1ccc(NC(=O)CN(c2cc(C)cc(C)c2)S(=O)(=O)c2c(C)noc2C)cc1"
90.5% (inactive)

Looking for the measured Her2 level of "CCOCCOc1nc2c(c(=O)n(C)c(=O)n2C)n1Cc1ccc(C)cc1" , can you help?
113% (inactive)

Tell me the measured Her2 level of "CCOC(=O)Nc1ccc2c(c1)N(C(=O)OCCN(C)C)c1ccccc1CC2" , please.
100% (inactive)

Field request: Her2 level | item: "Cc1cc(OCC(=O)NCCO)cc(C)c1Cl"
120% (inactive)

// Her2 level lookup, key: "CCOC(=O)C(C)(C)Sc1nc2c(cnn2-c2ccc(Cl)cc2)c(=O)[nH]1"
91% (inactive)

Which measured Her2 level value corresponds to "CSc1ccccc1NC(=O)c1cnc2n(c1=O)CCS2" ?
82.5% (inactive)

# query: Her2 level of entry CC(=O)NC(C)C(=O)OCC(=O)Nc1ccc(Br)cc1 (stereo unspecified)
80.5% (inactive)

Looking for the measured Her2 level of O=C(C(Cc1ccccc1)n1cccc1)N1CCCCCC1 (stereo unspecified) , can you help?
102% (inactive)

Item under review: "Cn1nnnc1SCC(=O)Nc1ccccc1C(=O)NCc1ccccc1" . Reported Her2 level?
98% (inactive)

Look at this compound and give its reported Her2 level. COc1ccc(C(c2sc3nc(C)nn3c2O)N2CCCCC2)cc1 (stereo unspecified)
94.5% (inactive)

Using the record for "O=C(CSc1ncnc2nc[nH]c12)c1ccc(Cl)cc1" , report its Her2 level.
98% (inactive)

Requested field: Her2 level. Item: COC1CCCCC1Nc1cccc(SC)c1 (stereo unspecified)
112% (inactive)

Given the compound "Cn1c(C(=O)NCCCN2CCCCCC2)cc2c(=O)n(C)c3ccccc3c21" , what is its reported Her2 level?
92.5% (inactive)

Requested read-out: Her2 level. Entry: "O=C(NCc1ccco1)C1CCN(c2ccc(N3CCOCC3)nn2)CC1"
120% (inactive)

Returns the measured Her2 level for the input compound. Input: "Cc1ccc(Cn2c(=O)c3ccccc3n3c(CCC(=O)O)nnc23)cc1"
100% (inactive)

Which Her2 level reading was recorded for the compound CCOC(=O)c1cc2c(=O)n3ccccc3nc2n(CC2CCCO2)c1=NC(C)=O (stereo unspecified) ?
95.5% (inactive)

Look at this compound and give its reported Her2 level. "Cc1cccc(OCCNC(=O)c2ncn[nH]2)c1"
108% (inactive)

Any idea what its Her2 level is? The compound is "CCOc1ccc2[nH]c(C)cc(=O)c2c1"
100% (inactive)

Fill in: Her2 level of "Cc1cc(=O)oc2c1ccc1oc(/C(=N/O)c3ccccc3)c(C)c12" is ___
112% (inactive)

Form field: reported Her2 level of "O=c1oc2c3c4c(cc2s1)CCCN4CCC3"
86% (inactive)

Which Her2 level value belongs to CCN1CCN(C(c2cccs2)C(C)NC(=O)c2ccccc2)CC1 (stereo unspecified) ?
88% (inactive)

// returns reported Her2 level for input COc1ccc(-c2nc(CSCC(=O)N3CCN(c4cccc(C)c4)C(C)C3)c(C)o2)cc1OC (stereo unspecified)
67.5% (inactive)
